target: UniProtKB P52333; experiment: Inhibition of a panel of kinases, in vitro HotSpot kinase assay: JAK3; format: biochemical; settings: Table 10, Formula A-I; 1 μM ATP; read-out: JAK3 (IC50)
pIC50: −log10 of the molar value. Where a name gives a salt, the structure may show the parent alone.
Record form. Attribute: pIC50. Fill in for each entry.

The cases that follow already have their pIC50 on record.
{"compound": "Cc1cc(Nc2nc(N3CCC[C@@H](NC(=O)c4ccncc4)C3)cnc2C(N)=O)sn1", "result type": "pIC50", "recorded measurement": "6.00 to 7.00"}
{"compound": "Cc1cc(Nc2nc(N3CCC[C@@H](NC(=O)c4ccc(N(C)C)cc4)[C@H]3C)cnc2C(N)=O)sn1", "result type": "pIC50", "recorded measurement": "6.00 to 7.00"}
{"compound": "Cc1cc(Nc2cc(N3CCC[C@@H](NC(=O)c4ccc(N(C)C)cc4)C3)cnc2C(N)=O)sn1", "result type": "pIC50", "recorded measurement": "< 5.00"}
{"compound": "Cc1cccc(NC(=O)N[C@@H]2CCCN(c3cnc(C(N)=O)c(Nc4cc(C)ns4)n3)C2)c1", "result type": "pIC50", "recorded measurement": "5.00 to 6.00"}
{"compound": "Cc1cc(Nc2nc(N3CCC[C@H](NC(=O)N(C)C)[C@@H]3C)cnc2C(N)=O)sn1", "result type": "pIC50", "recorded measurement": "5.00 to 6.00"}

Below are some compounds; for each one, tell me its pIC50.
1. Cc1cc(Nc2nc(N3CCC[C@@H](NC(=O)c4ccc(C5CC5)cc4F)C3)cnc2C(N)=O)sn1
2. Cc1cc(Nc2nc(N3CCCC(CNC(=O)c4ccccc4)C3)cnc2C(N)=O)sn1 (stereo not drawn)
3. CN(C)c1ccc(C(=O)N[C@@H]2CCCN(c3cnc(C(N)=O)c(Nc4ccc5ncccc5c4)n3)C2)cc1 [Example A-46, hydrochloride]
4. Cc1cc(Nc2nc(N3CCC(CNC(=O)c4ccccc4)CC3)cnc2C(N)=O)sn1
5. Cc1cc(Nc2nc(N3CCCC(CNC(=O)N(C)C)C3)cnc2C(N)=O)sn1 (stereo not drawn)
6. Cc1cc(Nc2nc(N3CCC[C@@H](NC(=O)c4ccccc4F)C3)cnc2C(N)=O)sn1
7. CN(C)c1ccc(C(=O)N[C@@H]2CCCN(c3cnc(C(N)=O)c(Nc4ccc(C5CCN(C6CCCC6)CC5)cc4)n3)C2)cc1 [Example A-7, hydrochloride]

1. < 5.00
2. 5.00 to 6.00
3. 5.00 to 6.00
4. > 7.00
5. 5.00 to 6.00
6. 6.00 to 7.00
7. 6.00 to 7.00

Below are some compounds; for each one, tell me its pIC50.
1. Cc1cc(Nc2c(C(N)=O)ncc(N3CCC[C@@H](NC(=O)c4ccc(N(C)C)cc4)C3)c2C)sn1
2. Cc1cccc(NC(=O)N[C@@H]2CCCN(c3cnc(C(N)=O)c(Nc4ccc(C5CCN(C6CCCC6)CC5)cc4)n3)C2)c1 [Example A-4, hydrochloride]
3. Cc1cc(Nc2nc(N3CCC[C@@H](NC(=O)Nc4cccnc4)C3)cnc2C(N)=O)sn1

1. < 5.00
2. 6.00 to 7.00
3. 5.00 to 6.00

----------
molecular target: TEC (Homo sapiens); experiment: Inhibition of a panel of kinases, in vitro HotSpot kinase assay: TEC; type: biochemical; details: D-compounds panel data; 1 μM ATP
Sequence (P42680 whole entry): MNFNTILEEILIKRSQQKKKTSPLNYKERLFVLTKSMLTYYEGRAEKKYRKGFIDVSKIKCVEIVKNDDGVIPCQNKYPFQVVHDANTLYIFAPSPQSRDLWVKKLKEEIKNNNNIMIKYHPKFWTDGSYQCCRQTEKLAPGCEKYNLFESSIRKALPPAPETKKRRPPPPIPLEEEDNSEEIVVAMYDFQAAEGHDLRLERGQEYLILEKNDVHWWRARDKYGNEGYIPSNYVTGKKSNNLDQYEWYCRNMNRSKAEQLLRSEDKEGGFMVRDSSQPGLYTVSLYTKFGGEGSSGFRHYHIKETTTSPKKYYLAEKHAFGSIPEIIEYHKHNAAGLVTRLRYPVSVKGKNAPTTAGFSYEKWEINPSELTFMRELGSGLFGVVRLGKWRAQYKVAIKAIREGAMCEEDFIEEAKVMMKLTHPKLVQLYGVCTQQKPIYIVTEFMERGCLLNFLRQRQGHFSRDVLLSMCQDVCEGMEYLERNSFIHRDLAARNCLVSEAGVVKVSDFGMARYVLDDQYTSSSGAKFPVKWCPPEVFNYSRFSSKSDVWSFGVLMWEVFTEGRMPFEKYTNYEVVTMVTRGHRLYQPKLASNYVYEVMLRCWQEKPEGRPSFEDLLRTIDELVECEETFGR
pIC50: −log10 of the molar value.
result type: pIC50

{"molecule": "C[C@@H]1[C@H](NC(=O)c2ccc(OC(F)(F)F)cc2)CCCN1c1cnc(C(N)=O)c(Nc2cnn(C)c2)n1 [Example D-95]", "pIC50": "7.00 to 8.00"}

Below are some molecules; for each one, tell me its pIC50.
1. CC(C)n1ccc(C(=O)N[C@@H]2CCCN(c3cnc(C(N)=O)c(Nc4cnn(C)c4)n3)[C@@H]2C)cc1=O [Example D-35]
2. Cc1cc(Nc2nc(N3C[C@@H](NC(=O)N(C)C)CC[C@H]3C)cnc2C(N)=O)sn1 [Example D-75]
3. C[C@@H]1[C@H](NC(=O)c2ccc(C3CC3)cc2)CCCN1c1cnc(C(N)=O)c(Nc2cnn(C3CC3)c2)n1 [Example D-279]

1: 7.00 to 8.00; 2: 6.00 to 7.00; 3: ≥ 8.00

----------
Record form. Attribute: pIC50. Fill in for each entry.
molecular target: JAK3 (Homo sapiens, UniProt P52333); assay: Inhibition of a panel of kinases, in vitro HotSpot kinase assay: JAK3; format: biochemical; conditions: Table 13, A compounds; 1 μM ATP; read-out: IC50 JAK3
Sequence (P52333 whole entry): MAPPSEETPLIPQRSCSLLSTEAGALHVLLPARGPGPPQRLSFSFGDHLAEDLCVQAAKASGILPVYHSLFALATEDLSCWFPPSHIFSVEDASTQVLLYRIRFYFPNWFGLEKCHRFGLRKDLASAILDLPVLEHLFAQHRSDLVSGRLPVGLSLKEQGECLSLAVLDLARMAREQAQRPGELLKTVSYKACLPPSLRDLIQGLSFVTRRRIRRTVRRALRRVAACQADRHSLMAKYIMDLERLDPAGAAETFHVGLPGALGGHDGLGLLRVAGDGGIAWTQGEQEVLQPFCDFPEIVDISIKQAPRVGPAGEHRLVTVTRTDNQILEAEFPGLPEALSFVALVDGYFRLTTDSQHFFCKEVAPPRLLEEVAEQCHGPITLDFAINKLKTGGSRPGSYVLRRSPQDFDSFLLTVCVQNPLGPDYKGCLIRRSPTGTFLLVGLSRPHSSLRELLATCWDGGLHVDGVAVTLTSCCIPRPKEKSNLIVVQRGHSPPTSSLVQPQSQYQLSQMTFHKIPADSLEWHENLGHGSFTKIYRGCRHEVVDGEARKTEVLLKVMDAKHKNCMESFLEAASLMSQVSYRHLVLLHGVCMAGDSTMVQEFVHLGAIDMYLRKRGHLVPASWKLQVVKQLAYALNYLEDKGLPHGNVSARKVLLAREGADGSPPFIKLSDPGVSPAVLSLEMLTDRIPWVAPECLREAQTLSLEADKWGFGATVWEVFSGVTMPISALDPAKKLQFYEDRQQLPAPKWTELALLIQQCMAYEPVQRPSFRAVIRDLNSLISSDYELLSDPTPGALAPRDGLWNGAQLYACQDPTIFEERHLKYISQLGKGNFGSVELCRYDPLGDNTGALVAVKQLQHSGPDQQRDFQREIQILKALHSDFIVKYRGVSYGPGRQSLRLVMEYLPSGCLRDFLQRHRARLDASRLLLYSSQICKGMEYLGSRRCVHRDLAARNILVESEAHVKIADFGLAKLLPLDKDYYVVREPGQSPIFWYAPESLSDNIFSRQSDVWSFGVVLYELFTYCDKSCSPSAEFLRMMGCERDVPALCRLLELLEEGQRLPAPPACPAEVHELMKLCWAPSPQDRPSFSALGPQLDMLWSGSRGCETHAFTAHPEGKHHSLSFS
pIC50: −log10 of the molar value.

The cases that follow already have their pIC50 on record.
{"record smiles": "C[C@@H]1[C@H](NC(=O)c2ccc(C3CC3)cc2Cl)CCCN1c1cnc(C(N)=O)c(Nc2ccc(N3CCN(C)CC3)cc2)n1", "pIC50": "5.00 to 6.00"}
{"record smiles": "CN1CCC(n2cc(Nc3nc(N4CCC[C@@H](n5ccc6cc(C7CC7)ccc6c5=O)C4)cnc3C(N)=O)cn2)CC1", "pIC50": "5.00 to 6.00"}
{"record smiles": "Cn1cc(Nc2nc(N3C[C@@H](NC(=O)c4ccc(C5CC5)cc4)CC(F)(F)C3)cnc2C(N)=O)cn1", "pIC50": "5.00 to 6.00"}

Below are some compounds; for each one, tell me its pIC50.
1. C[C@@H]1[C@H](NC(=O)c2ccc(C3CC3)cc2F)CCCN1c1cnc(C(N)=O)c(Nc2cnn(C)c2)n1
2. C[C@@H]1[C@H](NC(=O)c2ccc(C3CC3)cc2F)CCCN1c1cnc(C(N)=O)c(Nc2ccc(S(=O)(=O)N3CCCC3)cc2)n1

5.00 to 6.00
< 5.00

Give the measured pIC50 of C[C@@H]1[C@H](NC(=O)c2cc3c(n2C)CC(C)(C)C3)CCCN1c1cnc(C(N)=O)c(Nc2cnn(C)c2)n1 .
6.00 to 7.00

----------
target: UniProtKB Q08881; test: Inhibition of a panel of kinases, in vitro HotSpot kinase assay: ITK; format: biochemical; conditions: D-compounds panel data; 1 μM ATP
Sequence (Q08881 whole entry): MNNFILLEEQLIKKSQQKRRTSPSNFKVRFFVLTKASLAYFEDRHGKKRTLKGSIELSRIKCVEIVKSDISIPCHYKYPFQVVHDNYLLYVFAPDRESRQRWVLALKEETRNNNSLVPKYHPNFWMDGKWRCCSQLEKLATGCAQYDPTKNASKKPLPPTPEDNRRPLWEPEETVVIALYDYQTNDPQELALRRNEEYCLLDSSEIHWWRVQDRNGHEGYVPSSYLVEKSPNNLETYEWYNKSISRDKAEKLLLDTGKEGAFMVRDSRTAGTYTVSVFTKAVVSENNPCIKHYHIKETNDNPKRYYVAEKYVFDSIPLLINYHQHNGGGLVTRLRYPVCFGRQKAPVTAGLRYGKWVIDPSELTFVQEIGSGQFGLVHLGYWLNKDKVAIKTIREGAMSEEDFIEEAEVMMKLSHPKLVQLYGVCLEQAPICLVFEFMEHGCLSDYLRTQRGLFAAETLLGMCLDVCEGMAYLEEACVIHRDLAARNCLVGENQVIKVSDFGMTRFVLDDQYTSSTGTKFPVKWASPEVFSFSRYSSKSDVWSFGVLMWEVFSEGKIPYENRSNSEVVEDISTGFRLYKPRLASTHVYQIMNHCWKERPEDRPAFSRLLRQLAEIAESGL
pIC50: −log10 of the molar value.
Record form. Attribute: pIC50. Fill in for each entry.

The cases that follow already have their pIC50 on record.
{"compound": "C[C@@H]1[C@H](NC(=O)c2ccc(C3CC3)cc2)CCCN1c1cnc(C(N)=O)c(Nc2ccc(OC3CCN4CCCC4C3)cc2)n1 (stereo partly drawn) [Example D-211]", "pIC50": "6.00 to 7.00"}
{"compound": "C[C@@H]1[C@H](NC(=O)c2ccc(C3CC3)cc2F)CCCN1c1cnc(C(N)=O)c(Nc2ccc(N3CCN(C)CC3)cn2)n1 [Example D-8]", "pIC50": "< 5.00"}
{"compound": "C[C@@H]1[C@H](NC(=O)c2ccc(C(C)(O)C(F)(F)F)cc2)CCCN1c1cnc(C(N)=O)c(Nc2cnn(C)c2)n1 (single isomer, unassigned) [Example D-213]", "pIC50": "6.00 to 7.00"}

Below are some compounds; for each one, tell me its pIC50.
1. C[C@H]1CC[C@H](NC(=O)c2ccc(C3CC3)cc2)CN1c1cnc(C(N)=O)c(Nc2cnn(C)c2)n1 [Example D-144]
2. C[C@@H]1[C@H](NC(=O)c2ccc(C3CC3)c(O)c2)CCCN1c1cnc(C(N)=O)c(Nc2cnn(C)c2)n1 [Example D-245]
3. COc1cc(C(=O)N[C@@H]2CCCN(c3cnc(C(N)=O)c(Nc4cnn(C)c4)n3)[C@@H]2C)ccc1C1CC1 [Example D-231]
4. C[C@@H]1[C@H](NC(=O)c2ccc(C(O)C(F)(F)F)cc2)CCCN1c1cnc(C(N)=O)c(Nc2cnn(C)c2)n1 (single isomer, unassigned) [Example D-249]

["< 5.00", "6.00 to 7.00", "6.00 to 7.00", "6.00 to 7.00"]

----------
target: SRC (Homo sapiens, UniProt P12931); assay: Inhibition of a panel of kinases, in vitro HotSpot kinase assay: SRC; format: biochemical; details: D-compounds panel data; 1 μM ATP
Sequence (P12931 whole entry): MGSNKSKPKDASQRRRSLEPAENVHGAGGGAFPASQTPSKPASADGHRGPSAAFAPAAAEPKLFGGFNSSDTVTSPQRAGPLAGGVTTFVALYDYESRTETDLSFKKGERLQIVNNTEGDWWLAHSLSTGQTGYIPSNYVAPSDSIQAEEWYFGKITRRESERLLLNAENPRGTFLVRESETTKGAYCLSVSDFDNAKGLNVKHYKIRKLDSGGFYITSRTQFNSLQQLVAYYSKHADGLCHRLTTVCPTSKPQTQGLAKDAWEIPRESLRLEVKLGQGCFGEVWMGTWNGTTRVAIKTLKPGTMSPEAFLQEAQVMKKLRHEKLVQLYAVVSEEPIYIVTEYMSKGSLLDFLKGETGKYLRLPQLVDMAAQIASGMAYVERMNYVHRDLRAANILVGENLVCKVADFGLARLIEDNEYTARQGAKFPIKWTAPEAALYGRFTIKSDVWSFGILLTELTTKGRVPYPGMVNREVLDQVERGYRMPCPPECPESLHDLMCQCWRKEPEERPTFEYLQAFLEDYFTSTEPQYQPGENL
result type: IC50

The cases that follow already have their IC50 on record.
{"compound": "Cc1cc(Nc2nc(N3C[C@H](NC(=O)N(C)C)CC[C@H]3C)cnc2C(N)=O)sn1", "recorded measurement": "1000 to 10000 nM"}
{"compound": "C[C@@H]1[C@H](NC(=O)c2c[nH]c(C3CC3)n2)CCCN1c1cnc(C(N)=O)c(Nc2cnn(C)c2)n1", "recorded measurement": "10 to 100 nM"}
{"compound": "C[C@@H]1[C@H](NC(=O)N(C)C)CCCN1c1cnc(C(N)=O)c(Nc2ccc(N3CCN(C)CC3)cc2)c1", "recorded measurement": "1000 to 10000 nM"}
{"compound": "CC1(c2ccc(Nc3nc(N4CCC[C@@H](n5ccc6cc(C7CC7)ccc6c5=O)C4)cnc3C(N)=O)cc2)CCN(C2CCCC2)CC1", "recorded measurement": "10 to 100 nM"}
{"compound": "C[C@@H]1[C@H](NC(=O)N(C)C)CCCN1c1cnc(C(N)=O)c(Nc2ccc(N3CCN(C)CC3)cn2)n1", "recorded measurement": "> 10000 nM"}
{"compound": "C[C@@H]1[C@H](NC(=O)N(C)C)CCCN1c1cnc(C(N)=O)c(Nc2ccc(N3CCN(C)CC3)cc2F)n1", "recorded measurement": "100 to 1000 nM"}
{"compound": "C[C@@H]1[C@H](NC(=O)c2ccc(C3CC3)cc2)CCCN1c1cnc(C(N)=O)c(Nc2cnn(CCO)c2)n1", "recorded measurement": "100 to 1000 nM"}
{"compound": "Cn1cc(Nc2nc(N3C[C@@H](NC(=O)c4ccc(C5CC5)cc4)CC(F)(F)C3)cnc2C(N)=O)cn1", "recorded measurement": "> 10000 nM"}

Below are some compounds; for each one, tell me its IC50.
1. C[C@@H]1[C@H](NC(=O)c2cc3n(n2)CCC3)CCCN1c1cnc(C(N)=O)c(Nc2cnn(C)c2)n1
2. CN1CCN(C(=O)c2ccc(Nc3nc(N[C@H]4CC[C@H](NC(=O)N(C)C)CC4)cnc3C(N)=O)cc2)CC1
3. C/C=C/c1ccc(C(=O)N[C@@H]2CCCN(c3cnc(C(N)=O)c(Nc4cc(C)ns4)c3)[C@@H]2C)c(F)c1
4. C[C@@H]1[C@H](NC(=O)c2ccc(C(C)(C)C)cc2)CCCN1c1cnc(C(N)=O)c(Nc2ccc(N3CCN(C)CC3)cc2)n1
5. C[C@@H]1[C@H](NC(=O)c2ccc(N(C)C)cn2)CCCN1c1cnc(C(N)=O)c(Nc2cnn(C)c2)n1
6. C[C@@H]1[C@H](NC(=O)c2ccc(C3CC3)cc2)CCCN1c1cnc(C(N)=O)c(Nc2cnn(C)c2F)n1
7. C[C@@H]1[C@H](NC(=O)c2ccc(C3CC3)cc2)CCCN1c1cnc(C(N)=O)c(Nc2ccc(CN3CCOCC3)cc2)n1

1: 10 to 100 nM; 2: 100 to 1000 nM; 3: 100 to 1000 nM; 4: 10 to 100 nM; 5: 10 to 100 nM; 6: 1000 to 10000 nM; 7: 10 to 100 nM

Below are some compounds; for each one, tell me its IC50.
1. Cn1cc(Nc2nc(N3C4CCC(NC(=O)c5ccc(C6CC6)cc5)C3CC4)cnc2C(N)=O)cn1 (single isomer, unassigned) [Example D-199]
2. Cn1cc(Nc2nc(N3C[C@H](CO)C[C@H](NC(=O)c4ccc(C5CC5)cc4)C3)cnc2C(N)=O)cn1 (racemic)
3. Cc1nc2cc(C(=O)N[C@@H]3CCCN(c4cnc(C(N)=O)c(Nc5cnn(C)c5)n4)[C@@H]3C)ccc2s1

1000 to 10000 nM
100 to 1000 nM
10 to 100 nM

Below are some compounds; for each one, tell me its IC50.
1. C[C@@H]1[C@H](NC(=O)c2ccc(C3CC3)cc2)CCCN1c1cnc(C(N)=O)c(Nc2ccc(N3CCC(C(C)(C)O)CC3)cc2)n1
2. Cc1cc(Nc2nc(N3C[C@@H](NC(=O)c4ccc(C5CC5)cc4F)CC[C@H]3C)cnc2C(N)=O)sn1
3. C[C@@H]1[C@H](NC(=O)c2ccc(C3CC3)cc2)CCCN1c1cnc(C(N)=O)c(Nc2ccc(N3CCC4(CC3)COC4)cc2)n1
4. C[C@@H]1[C@H](NC(=O)c2ccc(C3CC3)cc2)CCCN1c1cnc(C(N)=O)c(Nc2cnn(C3CCOCC3)c2)n1
5. C[C@H]1C[C@H](NC(=O)c2ccc(C3CC3)cc2)CN(c2cnc(C(N)=O)c(Nc3cnn(C)c3)n2)C1

1: 10 to 100 nM; 2: 100 to 1000 nM; 3: 100 to 1000 nM; 4: 10 to 100 nM; 5: > 10000 nM

Below are some compounds; for each one, tell me its IC50.
1. C[C@@H]1[C@H](NC(=O)c2ccc3c(c2)OCCO3)CCCN1c1cnc(C(N)=O)c(Nc2cnn(C)c2)n1
2. COCCN(C)Cc1cc(Nc2nc(N3CCC[C@@H](NC(=O)c4ccc(C5CC5)cc4)[C@H]3C)cnc2C(N)=O)sn1
3. C[C@@H]1[C@H](NC(=O)c2ccc(C(C)(O)C(F)(F)F)cc2)CCCN1c1cnc(C(N)=O)c(Nc2cnn(C)c2)n1 (single isomer, unassigned) [Example D-213]

["10 to 100 nM", "10 to 100 nM", "10 to 100 nM"]
